These entries and their values trace back to paper PMC4536312.

Target: T1, U2AF23 Q151R;U2AF59 fragment (Schizosaccharomyces …, UniProt Q09176;P36629 1-216;93-161, Q151R|)
T1 sequence 1: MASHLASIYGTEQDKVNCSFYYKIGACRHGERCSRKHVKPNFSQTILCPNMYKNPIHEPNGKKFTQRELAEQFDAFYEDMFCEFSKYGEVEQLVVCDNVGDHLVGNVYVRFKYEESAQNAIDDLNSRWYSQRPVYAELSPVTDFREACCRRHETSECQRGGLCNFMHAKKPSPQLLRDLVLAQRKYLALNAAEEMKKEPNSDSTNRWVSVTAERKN
T1 sequence 2: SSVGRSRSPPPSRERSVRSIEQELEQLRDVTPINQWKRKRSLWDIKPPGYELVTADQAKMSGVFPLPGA
Assay: ITC
Recorded measurements of pKd, one per entry
Answer as the number alone; pKd is minus log10 of concentration in mol/L.

1) CUAGG (ssRNA) | 6.12

Continue with the binder presented below.
Which pKd value belongs to CUAUG (ssRNA) ?
4.28
